Values were extracted from paper PMC7376575.

# target under test: catalytic domain of MMP-14 (UniProt P50281 112-292)
# assay text: enzyme inhibition assay
readout kind: Ki (nM)

[
  {
    "binder": "N-TIMP2 H97R (domain or fragment, native disulfides) CSCSPVHPQQAFCNADVVIRAKAVSEKEVDSGNDIYGNPIKRIQYEIKQIKMFKGPEKDIEFIYTAPSSAVCGVSLDVGGKKEYLIAGKAEGDGKMRITLCDFIVPWDTLSTTQKKSLNHRYQMGCE",
    "unit descriptor": "nM",
    "Ki": 0.125
  },
  {
    "binder": "N-TIMP2 S68E (domain or fragment, native disulfides) CSCSPVHPQQAFCNADVVIRAKAVSEKEVDSGNDIYGNPIKRIQYEIKQIKMFKGPEKDIEFIYTAPESAVCGVSLDVGGKKEYLIAGKAEGDGKMHITLCDFIVPWDTLSTTQKKSLNHRYQMGCE",
    "unit descriptor": "nM",
    "Ki": 1.42
  },
  {
    "binder": "N-TIMP2 T99M (domain or fragment, native disulfides) CSCSPVHPQQAFCNADVVIRAKAVSEKEVDSGNDIYGNPIKRIQYEIKQIKMFKGPEKDIEFIYTAPSSAVCGVSLDVGGKKEYLIAGKAEGDGKMHIMLCDFIVPWDTLSTTQKKSLNHRYQMGCE",
    "unit descriptor": "nM",
    "Ki": 2.05
  },
  {
    "binder": "N-TIMP2 T99G (domain or fragment, native disulfides) CSCSPVHPQQAFCNADVVIRAKAVSEKEVDSGNDIYGNPIKRIQYEIKQIKMFKGPEKDIEFIYTAPSSAVCGVSLDVGGKKEYLIAGKAEGDGKMHIGLCDFIVPWDTLSTTQKKSLNHRYQMGCE",
    "unit descriptor": "nM",
    "Ki": 0.534
  },
  {
    "binder": "N-TIMP2 S68M (domain or fragment, native disulfides) CSCSPVHPQQAFCNADVVIRAKAVSEKEVDSGNDIYGNPIKRIQYEIKQIKMFKGPEKDIEFIYTAPMSAVCGVSLDVGGKKEYLIAGKAEGDGKMHITLCDFIVPWDTLSTTQKKSLNHRYQMGCE",
    "unit descriptor": "nM",
    "Ki": 2.6
  }
]

1: N-TIMP2 T99Q (domain or fragment, native disulfides) CSCSPVHPQQAFCNADVVIRAKAVSEKEVDSGNDIYGNPIKRIQYEIKQIKMFKGPEKDIEFIYTAPSSAVCGVSLDVGGKKEYLIAGKAEGDGKMHIQLCDFIVPWDTLSTTQKKSLNHRYQMGCE
2: N-TIMP2 V71W (domain or fragment, native disulfides) CSCSPVHPQQAFCNADVVIRAKAVSEKEVDSGNDIYGNPIKRIQYEIKQIKMFKGPEKDIEFIYTAPSSAWCGVSLDVGGKKEYLIAGKAEGDGKMHITLCDFIVPWDTLSTTQKKSLNHRYQMGCE
Query: Compare 1 and 2 and name the one whose reported Ki is smaller. Lab log: write the label of the selected item as the result.
Result: 1
